- study.target: Aromatase (Rattus norvegicus, UniProt P22443)
- Sequence (P22443 whole entry): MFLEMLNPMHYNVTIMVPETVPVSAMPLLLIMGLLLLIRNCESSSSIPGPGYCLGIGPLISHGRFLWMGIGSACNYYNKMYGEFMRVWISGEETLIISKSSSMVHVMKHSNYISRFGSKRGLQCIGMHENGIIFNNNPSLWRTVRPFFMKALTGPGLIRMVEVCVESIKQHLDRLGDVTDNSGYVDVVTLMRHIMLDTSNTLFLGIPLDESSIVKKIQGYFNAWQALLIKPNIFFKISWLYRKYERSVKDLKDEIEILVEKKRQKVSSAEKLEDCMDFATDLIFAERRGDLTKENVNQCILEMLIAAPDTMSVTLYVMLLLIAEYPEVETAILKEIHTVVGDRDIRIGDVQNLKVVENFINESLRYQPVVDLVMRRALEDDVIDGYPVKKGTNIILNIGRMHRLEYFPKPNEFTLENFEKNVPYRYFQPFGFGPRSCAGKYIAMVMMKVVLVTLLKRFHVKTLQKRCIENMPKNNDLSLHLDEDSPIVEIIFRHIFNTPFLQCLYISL
- experiment: Inhibition of aromatase in Rattus norvegicus (rat) PMSG-treated denucleated ovarian fraction using testosterone as substrate at 50 uM after 15 min by radioimmuno assay
- details: 0.25 h
Below: a set of entries, each annotated with reported inhibition at 50 µM.
Kindly write the number and append the unit.

Illustrative cases are given below, each with its answer.
# compound.structure.string, study.target, inhibition at 50 µM
measured = [
    ("C[C@]1(COC(=O)CCCC(=O)O)CC[C@@H]2c3ccc(O)cc3CC[C@H]2[C@@H]1CC#N", "Aromatase (Rattus norvegicus, UniProt P22443)", "67.3%"),
    ("C[C@]1(COC(=O)CCCC(=O)O)CC[C@@H]2c3ccc(OCc4ccccc4)cc3CC[C@H]2[C@@H]1CC#N", "Aromatase (Rattus norvegicus, UniProt P22443)", "88.2%"),
    ("C[C@]1(COC(=O)CCC(=O)O)CC[C@@H]2c3ccc(OCc4ccccc4)cc3CC[C@H]2[C@@H]1CC#N", "Aromatase (Rattus norvegicus, UniProt P22443)", "21.2%"),
]

Moving on to the next molecule.
Challenge: # get_value(readout='inhibition at 50 µM', item= "C[C@]1(COC(=O)CCC(=O)O)CC[C@@H]2c3ccc(O)cc3CC[C@H]2[C@@H]1CC#N" )
Response given: 0.1%

----------
- experiment: Growth inhibition of Homo sapiens (human) MRC5 cells at 10^-12 to 10^-6 M after 48 hr by MTT assay
- Assay type: cell-based
- details: read-out: GI
inhibition at 48 h values by entry
Write it as a number; the unit % goes unstated.

# compound.structure.string, inhibition at 48 h (%)
rows = [
    ("C[C@]1(COC(=O)CCC(=O)O)CC[C@@H]2c3ccc(OCc4ccccc4)cc3CC[C@H]2[C@@H]1CC#N", 40),
]

// next item, inhibition at 48 h requested
Challenge: Param item = "C[C@]1(COC(=O)CCCC(=O)O)CC[C@@H]2c3ccc(O)cc3CC[C@H]2[C@@H]1CC#N" ; retrieve measured inhibition at 48 h.
Response given: 10
